Data origin: PubChem BioAssay (NCI)

System: SK-MEL-28 melanoma
procedure_summary: NCI tumour cell line growth inhibition, 48 h
metric: GI50

COc1ccc(C2CC(n3nnnc3-c3ccccc3)=NN2)cc1 (stereo unspecified) :: 13.3 µM
CCN(CCNc1ccc(C)c2sc3ccccc3c(=O)c12)CC(C)(C)O :: 6.16 µM
COC(=O)CCC1=C(C)/C(=C/c2[nH]c(-c3ccc[nH]3)cc2OC)N=C1C :: 0.869 µM
CC(C)[C@H]1C(=O)N[C@@H](CCCN=C(N)N)C(=O)NCC(=O)N[C@@H](CC(=O)O)C(=O)N[C@H](Cc2ccccc2)C(=O)N1C :: 31.6 µM
CCC(c1cccc(O)c1)C(CC)c1cccc(O)c1 (stereo unspecified) :: 4.9 µM

Consider the record given below.
Give a short answer stating reported GI50 for CN(C)C(=O)O[C@@H]1CN[C@@H](C#Cc2cc3ncnc(Nc4ccc(OCc5cccc(F)c5)c(Cl)c4)c3s2)C1 .
> 25 µM
